A collection of compounds and their measured RAT MICROSOMAL STABILITY (% REMAINING AFTER 30 MINUTES)
Assay: In vitro rat microsomal stability assay
Type: in vitro ADME, rat (Sprague-Dawley)
Conditions: Sprague-Dawley, rat, microsomes, 0.5 h, 0.5 μM, pH 7.4
endpoint: RAT MICROSOMAL STABILITY (% REMAINING AFTER 30 MINUTES) (%)

compound="OC(c1ccccn1)C1(c2ccccc2C(F)(F)F)CCC1 (centres unmarked) [Example 5]" unit_label=% inequality_sign== value_observed=0.06
compound="OC(C1CCCc2cccnc21)C1(c2cccc(C(F)(F)F)c2)CCC1 (single isomer, unassigned) [Example 180]" unit_label=% inequality_sign=< value_observed=0.01
compound="CC(C)(C)OC(=O)N1CCC(C2(C(O)c3ccccn3)CCC2)C1 (centres unmarked) [Example 265]" unit_label=% inequality_sign== value_observed=0.059
compound="OC1CC(c2ccc(Cl)c(Cl)c2)(C(O)c2ncccn2)C1 (single isomer, unassigned) [Example 312]" unit_label=% inequality_sign=> value_observed=85
compound="OC(c1ccccn1)C1(c2ccc(C(F)(F)F)c(F)c2)CCC1 (centres unmarked) [Example 17]" unit_label=% inequality_sign== value_observed=13

---

Each entry below carries its reported pIC50.
Target: human TRPV3 (Homo sapiens)
Construct: expressed in transfected cells
Sequence (Q8NET8 whole entry): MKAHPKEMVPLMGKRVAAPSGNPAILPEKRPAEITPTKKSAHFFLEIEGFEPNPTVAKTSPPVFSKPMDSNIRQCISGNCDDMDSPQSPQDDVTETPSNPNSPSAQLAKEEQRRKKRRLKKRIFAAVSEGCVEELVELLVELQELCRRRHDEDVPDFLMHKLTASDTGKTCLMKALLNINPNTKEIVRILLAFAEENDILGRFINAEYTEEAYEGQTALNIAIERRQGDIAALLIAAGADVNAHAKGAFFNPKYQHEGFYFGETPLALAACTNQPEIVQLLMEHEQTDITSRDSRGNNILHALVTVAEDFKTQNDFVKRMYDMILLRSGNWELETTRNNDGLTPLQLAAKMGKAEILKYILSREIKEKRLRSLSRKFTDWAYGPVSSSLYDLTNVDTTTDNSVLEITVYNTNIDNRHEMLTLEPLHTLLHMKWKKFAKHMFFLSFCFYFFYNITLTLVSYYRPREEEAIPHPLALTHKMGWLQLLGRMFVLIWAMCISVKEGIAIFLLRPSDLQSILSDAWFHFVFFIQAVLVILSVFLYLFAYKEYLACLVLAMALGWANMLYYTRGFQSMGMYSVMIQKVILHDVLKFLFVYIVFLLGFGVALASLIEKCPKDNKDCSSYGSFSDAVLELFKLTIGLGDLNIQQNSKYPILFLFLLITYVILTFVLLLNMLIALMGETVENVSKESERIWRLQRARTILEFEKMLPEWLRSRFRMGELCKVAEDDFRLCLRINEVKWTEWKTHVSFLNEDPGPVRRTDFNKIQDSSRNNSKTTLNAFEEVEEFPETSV
Assay: In vitro antagonism of recombinant human TRPV3 activation (FLIPR Tetra calcium assay)
Type: cell-based
Details: HEK293 cells stably expressing human TRPV3; agonist 2-APB at 80 μM; actual measured value shown parenthetically; in most cases average of at least two runs; read-out: IC50
pIC50: −log10 of the molar value.
endpoint: pIC50

compound="NC1CCCCC1C(O)C1(c2ccc(C(F)(F)F)cc2)CCC1 (stereo not drawn)" inequality_sign== value_observed=5.40
compound="CC(c1ccccc1Cl)C1(C(O)c2ccccn2)CCC1 (stereo not drawn)" inequality_sign== value_observed=5.62
compound="OC(c1ccccn1)C1(c2ccc(F)c(F)c2)CCOCC1 (stereo not drawn)" inequality_sign== value_observed=5.14
compound="OC1CC(c2ccc(F)c(Cl)c2)([C@H](O)c2ccccn2)C1 (stereo partly drawn)" inequality_sign== value_observed=6.70
compound=O[C@H](c1ncccn1)C1(c2ccc(C(F)(F)F)cc2)CCC1 inequality_sign=< value_observed=5.00
compound=O[C@H](c1ccccn1)C1(c2cc(C(F)(F)F)ccn2)CC(F)(F)C1 inequality_sign== value_observed=6.09
compound="OC(C1CCCc2cccnc21)C1(c2ccccc2OC(F)(F)F)CCC1 (stereo not drawn) [Example 192]" inequality_sign=< value_observed=4.70
compound="OC(C1CCCc2cccnc21)C1(c2ccc(Cl)c(Cl)c2)CCC1 (single isomer, unassigned) [Example 181]" inequality_sign== value_observed=5.70
compound="OC(C1CCCc2cccnc21)C1(c2ccc(F)c(F)c2)CCC1 (single isomer, unassigned) [Example 170]" inequality_sign=< value_observed=4.70
compound="COc1ccnc(C(O)C2(c3ccc(Cl)c(Cl)c3)CCC2)c1 (stereo not drawn)" inequality_sign=< value_observed=4.70
compound="CN1CCC(c2cccc(OC(F)(F)F)c2)(C(O)c2ccccn2)CC1 (stereo not drawn)" inequality_sign== value_observed=4.89
compound="OC(c1ncccn1)C1(c2cccc(F)c2)CCC1 (stereo not drawn)" inequality_sign== value_observed=5.07
compound="Nc1cccnc1C(O)C1(c2ccc(Cl)c(Cl)c2)CCC1 (stereo not drawn)" inequality_sign== value_observed=5.51
compound="O=C1CC(c2ccc(F)c(Cl)c2)([C@H](O)c2ccccn2)C1 (single isomer, unassigned)" inequality_sign== value_observed=5.67
compound="Cl.O[C@H](c1ccccn1)C1(c2ccc(Cl)c(Cl)c2)CC(F)(F)C1 [Example 111, hydrochloride]" inequality_sign== value_observed=6.72
compound="OC(c1ccccn1)C1(c2cccc(F)c2)CCC1 (stereo not drawn)" inequality_sign== value_observed=6.49
compound="OC(C1CCCc2cccnc21)C1(c2ccc(F)c(F)c2)CCC1 (single isomer, unassigned) [Example 169]" inequality_sign== value_observed=5.24
compound=N[C@H]1CCC[C@H]1[C@@H](O)C1(c2ccccc2F)CCC1 inequality_sign== value_observed=6.10
